Each entry below carries its recorded MIC.
tested on: Haemophilus influenzae; experiment: Antibacterial activity against beta-lactamase non-producing penicillin-resistant Haemophilus influenzae SR11435 after 20 hrs by agar dilution method; format: functional; conditions: SR11435, 20 h
RECORDED_ENDPOINT: MIC (µg/mL)

[
  {
    "MOLECULE": "CCO/N=C(\\C(=O)N[C@@H]1C(=O)N2C(C(=O)[O-])=C(/C=C/C[n+]3ccc(-c4cc(/C([O-])=N/C#N)[nH]n4)cc3)CS[C@H]12)c1csc(N)n1.[Na+]",
    "READOUT_NUMBER": 0.063
  },
  {
    "MOLECULE": "CCO/N=C(\\C(=O)N[C@@H]1C(=O)N2C(C(=O)[O-])=C(/C=C/C[n+]3ccc4c(/C([O-])=N\\C#N)cccc4c3)CS[C@H]12)c1csc(N)n1.[Na+]",
    "READOUT_NUMBER": 0.063
  },
  {
    "MOLECULE": "CO/N=C(\\C(=O)N[C@@H]1C(=O)N2C(C(=O)O)=C(CSc3nc(=O)c(=O)[nH]n3C)CS[C@H]12)c1csc(N)n1",
    "READOUT_NUMBER": 0.125
  },
  {
    "MOLECULE": "CCO/N=C(\\C(=O)N[C@@H]1C(=O)N2C(C(=O)[O-])=C(/C=C/C[n+]3ccc(-c4cc(/C([O-])=N/C#N)on4)cc3)CS[C@H]12)c1csc(N)n1.[Na+]",
    "READOUT_NUMBER": 0.063
  },
  {
    "MOLECULE": "CCO/N=C(\\C(=O)N[C@@H]1C(=O)N2C(C(=O)[O-])=C(C[n+]3ccc(-c4cc(/C([O-])=N/C#N)[nH]n4)cc3)CS[C@H]12)c1nc(N)sc1Cl.[Na+]",
    "READOUT_NUMBER": 0.25
  },
  {
    "MOLECULE": "N#C/N=C(\\[O-])c1cc(-c2cc[n+](CC3=C(C(=O)[O-])N4C(=O)[C@@H](NC(=O)/C(=N\\OCCF)c5csc(N)n5)[C@H]4SC3)cc2)n[nH]1.[Na+] (stereo in doubt)",
    "READOUT_NUMBER": 0.063
  },
  {
    "MOLECULE": "CCO/N=C(\\C(=O)N[C@@H]1C(=O)N2C(C(=O)[O-])=C(/C=C/C[n+]3cccc4cc(/C([O-])=N/C#N)[nH]c43)CS[C@H]12)c1csc(N)n1.[Na+]",
    "READOUT_NUMBER": 0.063
  },
  {
    "MOLECULE": "CO/N=C(\\C(=O)N[C@@H]1C(=O)N2C(C(=O)[O-])=C(C[n+]3ccc(-c4cc(/C([O-])=N/C#N)[nH]n4)cc3)CS[C@H]12)c1csc(N)n1.[Na+] (stereo in doubt)",
    "READOUT_NUMBER": 0.063
  },
  {
    "MOLECULE": "CCO/N=C(\\C(=O)N[C@@H]1C(=O)N2C(C(=O)[O-])=C(/C=C/C[n+]3ccc(-c4cc(/C([O-])=N/C#N)n(C)c4)cc3)CS[C@H]12)c1csc(N)n1.[Na+]",
    "READOUT_NUMBER": 0.063
  },
  {
    "MOLECULE": "CCO/N=C(\\C(=O)N[C@@H]1C(=O)N2C(C(=O)[O-])=C(/C=C/C[n+]3ccc4[nH]c(/C([O-])=N/C#N)cc4c3)CS[C@H]12)c1csc(N)n1.[Na+]",
    "READOUT_NUMBER": 0.063
  },
  {
    "MOLECULE": "CCO/N=C(\\C(=O)N[C@@H]1C(=O)N2C(C(=O)[O-])=C(C=CC[n+]3ccc(-c4cc(/C([O-])=N/C#N)[nH]n4)cc3)CS[C@H]12)c1csc(N)n1.[Na+]",
    "READOUT_NUMBER": 0.125
  }
]
